molecular target: human IL-17A/F heterodimer (human, UniProt Q16552 24-155; Q96PD4 31-163); assay: cell-based or functional assay
# IC50, NIH/3T3/KZ170 NF-kB luciferase reporter values compiled below
Dear colleague, please return just the value in nM, with no unit written.

339-38 (antibody, human IgG1, V domains shown) VH: QVQLVQSGAEVKKPGASVKVSCKASGYTFNEYTMHWVKQSHGQRLEWMGGINPNSGGVSYNQNFKGKATLTVDTSASTAYMELSSLRSEDTAVYYCARGGDGYYTNYFDIDYWGQGTTVTVSS VL: EIVLTQSPDFQSVTPKEKVTITCSASSSVNYMHWYQQKPDQSPKLLIKDTSKLASGVPSRFSGSGSGTDFTLTINSLEAEDAATYYCQQWNSHPLTFGQGTKLEIK : 0.27

The binder listed as 339-127 (antibody, human IgG1, V domains shown) VH: QVQLVQSGAEVKKPGASVKVSCKASGYTFNEYTMHWVKQSHGQRLEWMGGINPNSGGVSYNQNFKGRVTITRDTSASTAYMELSSLRSEDTAVYYCARGGDGYYTNYFDIDYWGQGTTVTVSS VL: DIQMTQSPSSLSASVGDRVTITCSASSSVNYMHWYQQKPGKVPKLLIYDTSKLASGVPSRFSGSGSGTDFTLTISSLQPEDVATYYCQQWNSHPLTFGQGTKLEIK has a reported IC50, NIH/3T3/KZ170 NF-kB luciferase reporter of 3.4

The binder listed as 339-128 (antibody, human IgG1, V domains shown) VH: QVQLVQSGAEVKKPGASVKVSCKASGYTFTEYTMHWVRQAPGQRLEWMGGINPNSGGVSYNQNFKGKATLTVDTSASTAYMELSSLRSEDTAVYYCARGGDGYYTNYFDIDYWGQGTTVTVSS VL: DIQMTQSPSSLSASVGDRVTITCSASSSVNYMHWYQQKPGKVPKLLIYDTSKLASGVPSRFSGSGSGTDFTLTISSLQPEDVATYYCQQWNSHPLTFGQGTKLEIK has a reported IC50, NIH/3T3/KZ170 NF-kB luciferase reporter of 0.41
